- testMethodNotes: yeast display, Sf9 membrane polyspecificity reagent, FACS + sequencing; frameworks hold sequencing errors
parameter: polyreactivity (PSR sort gate)

sequencerecord=QVQLVESGGGLVQAGGSLRLSCAASGITLHYYAMGWYRQAPGKERELVATISRSGGSTYYADSVKGRFTISRDNAKNTVYLQMNSLKPEDTAVYYCAARSWGGYDSRGYWGQGTQVTVSS result="high polyreactivity"
sequencerecord=QVQLVESGGGLVQAGGSLRLSCASSGRIFGSYAMGWYRQAPGKERELVAGISKSGTSTYYADSVKGRFTISRDNAKNTVYLLMNSLKPEDTADYYCAKRFDSTKAKYYYWGQGTQGTVSS result="high polyreactivity"

====

- testMethodNotes: yeast display, Sf9 membrane polyspecificity reagent, FACS + sequencing; frameworks hold sequencing errors
parameter: polyreactivity (PSR sort gate)

Would you please look over these solved cases?
sequencerecord=QVQLVESGGGLVQAGGSLRLSCAASGRIFYGYAMGWYRQAPGKEWELVAAITDSGGITYYADSVKGRFTISRDNAKKTVYLQLNSLKPEDTAVYYCTALVRDPAWLSRVGYSGDYWGQGTQVTVSS parameter="polyreactivity (PSR sort gate)" result="high polyreactivity"
sequencerecord=QVQLQEGGGGLVQAGGSLRLSCAASGYISYGDDMGWYRQAPGEERELVASIGLDATTNYADSVKGRFTISRDNAKITVYLQMNSLKPEDTAVYYCAADVGSGVLCGYWGQGTQMTVSS parameter="polyreactivity (PSR sort gate)" result="high polyreactivity"
sequencerecord=QVQLVESGGGLVQAGGSLRLSCASSGRTFVNNAMGWSRQAPGKERELVAAISQSGSRTYYADSVKGRFTISRDNAKNTVYLQMNSLKPEDTAVYYCAARGARYSTSDYWGQGTQVTVSS parameter="polyreactivity (PSR sort gate)" result="high polyreactivity"
sequencerecord=QVQLVESGGCLVQAGGSLRLSCAASGSTFTINVMGWYRQAPGKERELVAAINGGGRTNYADSVKGRFTISRDNAKNTVYLQMNSLKPEDTAVYYCAADGLSNVRQMDYWGQGTQVTVSS parameter="polyreactivity (PSR sort gate)" result="low polyreactivity"

Value of measured polyreactivity (PSR sort gate) for the entry QVQLVESGGGLVQAGGSLRLSCAASGRIFYWNPMGWYRQAHGKERELVAAISWSGGSTYYADSVKGRFTISRDNAKNTVYLQMNRLKPEDTAVYYCARKYRSPISALMTGDYWGQGTQVTVSS : low polyreactivity

Value of measured polyreactivity (PSR sort gate) for the entry QVQLVESGGGLVQAGGSLRLSCAASGFIFEWNGMGWYRQAPGKERELVAAITWSGGSTYYADSVKGRFTISRDNAKYTVYLHMNSLKPEDTAVYYCAADFPEYYLPYDYWGQGTQVTVSS : low polyreactivity

Value of measured polyreactivity (PSR sort gate) for the entry QVQLVESGGGLVQAGVSLRLSCAASGFSFAKNAMAWYRQAPGKERELVADITYSGGSTYADSVKGRFTISLDNAKNTVYFQMNSLKPEDTAVYYCAADSRRRSCYDYWVQGTQVTVSS : low polyreactivity

Value of measured polyreactivity (PSR sort gate) for the entry QVQLVESGGGVVQAGGSLRLSCAASGSTFYSYAMGWYRPAPGKERELVAAISWDGGRTYYADSVKGRFTISRDNAQNTVYLQMNSMKPEDTAVYYCAARKGELWFPQGGYNYSGQGTQVTVSS : low polyreactivity

Value of measured polyreactivity (PSR sort gate) for the entry QVQLVESGGGLVQAGGSLRLSCAASGRIFDYYAMGWYRQAPGKERELVARISSSGGSTYYADSVKGRFTISRDNAKNTVYLQKNSLKPEDTAVSYCDARSPRYWLRLREYWGQGTQVTVSS : high polyreactivity

Value of measured polyreactivity (PSR sort gate) for the entry QVQLVESGGGLVQAGGSLRLSCAASGSILRVNAMGWYRQAPGKEREVVAAISSGGITNYADSVKGALHNFTRQCEEYRLFTDEQPETGTYRGQFCARTYRNPASAGSLVVRYPYDYWGQGTQVTVTS : low polyreactivity

Value of measured polyreactivity (PSR sort gate) for the entry QVQLVESGGALVQAGGSLRLSSAASGSTFYLNAMGWYRQAPGKERELVAAITVSGGSTYYADSVKGRFTISRDNAKNTVYLQMNSLKPEDTAVYYCARELLSPTYQRWYYYWGQGTQVTVSS : low polyreactivity

Value of measured polyreactivity (PSR sort gate) for the entry QVQLVESGGGLVQAGGSLRLSCAASGRIFSYYGMGWYRQAPGKERELVAAITWRGSTTNYADSVKGRFTISRDNAKNTVYLQMNSLKPEDTAVYYCAPLHSAGYAYDYWGQGTQVTVSS : high polyreactivity

Value of measured polyreactivity (PSR sort gate) for the entry QVQLVESGGGLVQAGGSLRLSCAASGSTFGSNAMGWYRQAPGKERELVAAIDANGGSTYYADSVKGRFTISRDNAKNTVYLQMNSLKPEDTAVYYCAAAGYWYYYVPNDYWGQGTQVTVSS : low polyreactivity

Value of measured polyreactivity (PSR sort gate) for the entry QVHLVESAGGLVQAGGSLRLSCAASGRIFTPYAMGWYRQAPGKERELVAVIRDGSTYYADSVKGRFTISRDNAKNTVYLQMNSLKPEDSAVYYCRYDIWVWWSGAYDYWGQGTQVTVSS : low polyreactivity

====

- testMethodNotes: yeast display, Sf9 membrane polyspecificity reagent, FACS + sequencing; frameworks hold sequencing errors
parameter: polyreactivity (PSR sort gate)

sequencerecord=QVQLVESGGGLVQAGGSLCLSCAASGFIFEFYTMGWYRQAPGKERELVAAITNGDSTNYADSVKGRFTISRDNAKNTVYLQMNSLKPEDTAVYYCAADGKGETEYSSHPGWAFDYWGQGTQVTVSS result="low polyreactivity"
sequencerecord=QVQLLESGDGLVQAVGSLRLSCAASGYISGYYYMGWYRQAPGKERELVAGIDAFGSSTNYADCVKGRFTISRDNAINSVYLQMNSLKPEDTAVYYCAARPDGDRLFSYWGQGTQVTVSS result="low polyreactivity"

====

- testMethodNotes: yeast display, Sf9 membrane polyspecificity reagent, FACS + sequencing; frameworks hold sequencing errors
parameter: polyreactivity (PSR sort gate)

Would you please look over these solved cases?
sequencerecord=QVQLVESGGGLVQAGGSLRLSCAASGFIIGYYAMGWYRQAPGKERDLVAAISSTGGSTYYADSVKGRFTISRDNAMNTVYLQMNSLKPEDTAVYYCAKRFAYYRYHPGYDYWGQVTQVTVSS result="high polyreactivity"
sequencerecord=QVQLVESGGGLVQAGGSLRLSCAASGLILPYYAMGWYRQAPGKERELVAAISRTGGRTSYADSVKGRFTISRDNAKNTVYLQMNSLKPEDTAVYYCAAVGQSGGRRYDYWGQGTQVTVSS result="high polyreactivity"
sequencerecord=QVQLVESGGGLVQAGGSLRLSCAASGRTLARNAMGWYRQAPGKERELVASINGRTTRTYYADSVKGRFTISRDNAKNTVYLQMNSLKPEDTAVYYCAADPPGYVYGKRYYWGQGTQVTVSS result="high polyreactivity"
sequencerecord=QVQLVESGGGLVHAGGSLRLSCAASGRIFHFNAMGWYRPAPGIERELVATITKRGGRTYYADSVKGRFTISRDNAKNTVYLQMNSLKPEDTAVYYCNADQSRYSAVSGYDYWGQGTQVTVSS result="high polyreactivity"
sequencerecord=QVQHVESGGGIVQAGGSLRLSCAASGRTFGPYAMGWYRQAPGKEWELVAVISGRGTSTYYADSVKGRFTISRDNAKNTVYLQMNSLKPEDTAVYYCKADYGSWFWGFDYWGQGTQVTVSS result="low polyreactivity"
sequencerecord=QVQLVESGGGLVQAGGSLRLSCAASGNTFFKNAMGWYRQAPGKERELVAAISKRGGSTYYADSVKGRFTISRDNAKNTVYLQMNSLIPEDTAVYYCAADTFGVYASTYDYWGQGTQVTVSS result="high polyreactivity"
sequencerecord=QVQLVESGGGLVQAGGSLRLSCAASGRIFSYYTMGWYRQAPGKERELVAAITASDGDTYYADSVKGRFTISRDNAKNTVYLQMNSLKPEDTAVYYCNAELFSVNGYDYWGQGTQVTVSS result="low polyreactivity"
sequencerecord=QVQLVESGGGVVQAGGSLRLSCAASGSTFTVNGMGWYRQAPGKERELVAAIVGGDGSTYYADSVKGRFTISRDNAMNTVYLQMNSLKPEDTAVYYCAADPPGFTQYGYWGQGTQVTVSS result="low polyreactivity"

Value of measured polyreactivity (PSR sort gate) for the entry QLQLVESGGVLDQAGRSLRLICAASVIIFRGYAKGRSRQAHGKERELVAAISRSGGRTYYADSVKGRFTISRDNAKKTVYLQRNSLKTEDTAVYYCAPQWLYLEYDYWGQGTQVTVSS : high polyreactivity

Value of measured polyreactivity (PSR sort gate) for the entry QVQLVESGGVLVQAGGSLRLSCAASGSIFDKAMGWSRQAPGKERELVSAITSGGITNYADSVKGRFTISRDNAKNTVYLQMNRLKPEDCAVYYCNTLSPTQTKYDYWGQGTQVSVSS : low polyreactivity

Value of measured polyreactivity (PSR sort gate) for the entry QVQLVESGGGLVQAGGSLRLSCAASGLIFRYYAMGWYRQAPGKERELVAVISRRGDSTYYADSVKGRFTISRDNAKNTVYLQMNSLKPEDTAVYYCAAQAFVSYFKFRGGYWGQGTQVTVSS : high polyreactivity
